This section presents IC50 values reported for Tyrosine-protein kinase TXK (Homo sapiens, UniProt P42681) in the literature.
Binary call on IC50 with cut-off 200 nM: strictly below means fulfilled, and equality or higher means not fulfilled.

Q: Consider CN(C(=O)c1ccccc1)c1ccc2c(c1)nc(NC(=O)c1ccc(Cl)cc1)n2CCC(N)=O . Does its IC50 lie strictly below 200 nM?
A: not fulfilled

Q: Consider CCN1CCN(Cc2ccc(-c3cc4c(-c5cccc(N6CCOc7cc(C8CC8)cc(F)c7C6=O)c5CO)ccnc4[nH]3)nc2)CC1 . Does its IC50 lie strictly below 200 nM?
A: not fulfilled

Q: Consider CCC(O)(CC)c1cc(OCCN2CCOCC2)c2cc(-c3n[nH]c4ccsc34)[nH]c2c1 . Does its IC50 lie strictly below 200 nM?
A: fulfilled

Q: Consider Nc1nccn2c([C@@H]3CCCN(C4CCOCC4)C3)nc(-c3ccc(C(=O)Nc4cc(C(F)(F)F)ccn4)cc3F)c12 . Does its IC50 lie strictly below 200 nM?
A: not fulfilled

Q: Consider CCN(C(=O)c1ccccc1)c1ccc2c(c1)nc(NC(=O)c1ccc(C#N)cc1)n2CCC(N)=O . Does its IC50 lie strictly below 200 nM?
A: not fulfilled

Q: Consider Cc1ccc2[nH]ncc2c1Nc1ccnc(Nc2cccc(S(N)(=O)=O)c2)n1 . Does its IC50 lie strictly below 200 nM?
A: not fulfilled

Q: Consider CNC(=O)c1cc(Oc2ccc(NC(=O)Nc3cc(C(C)(C)C)nn3-c3ccc4ncccc4c3)c(F)c2)ccn1 . Does its IC50 lie strictly below 200 nM?
A: not fulfilled

Q: Consider CN1CCN(C(=O)c2ccc3c(c2)[nH]c2c(C(N)=O)ccc(-c4cccc(NC(=O)c5ccc(N(C)C)cc5)c4F)c23)CC1 . Does its IC50 lie strictly below 200 nM?
A: fulfilled

Q: Consider CC1(C)OC(=O)N2C[C@H](c3nc(-c4ccc(C(=O)Nc5cc(C(F)(F)F)ccn5)cc4)c4c(N)nccn34)CC[C@H]21 . Does its IC50 lie strictly below 200 nM?
A: fulfilled

Q: Consider CCc1ccc2nc(Nc3cc(Cc4ccccc4)nc(N[C@H]4CC[C@H](O)CC4)n3)sc2c1 . Does its IC50 lie strictly below 200 nM?
A: fulfilled

Q: Consider CC(=O)Nc1cccc(-c2ccc(C(N)=O)c3[nH]c4cc(C(=O)N5CCN(C)CC5)ccc4c23)c1C . Does its IC50 lie strictly below 200 nM?
A: fulfilled

Q: Consider CC(=O)N1CCN(C(=O)c2cc(CSc3cnc(NC(=O)c4ccc(CNC(C)C(C)(C)C)cc4)s3)cc(C)c2C)CC1 (stereo unspecified) . Does its IC50 lie strictly below 200 nM?
A: not fulfilled

Q: Consider CC(C)C(=O)N1CCO[C@@H](c2nc(-c3ccc(C(=O)Nc4cc(C(F)(F)F)ccn4)cc3F)c3c(N)nccn23)C1 . Does its IC50 lie strictly below 200 nM?
A: not fulfilled

Q: Consider Cc1c(-c2ccc(C(N)=O)c3[nH]c4cc(C(C)(C)O)ccc4c23)cccc1-n1cnc2ccccc2c1=O . Does its IC50 lie strictly below 200 nM?
A: fulfilled

Q: Consider CC(C)(O)c1ccc2cc(-c3n[nH]c4ccsc34)[nH]c2c1 . Does its IC50 lie strictly below 200 nM?
A: fulfilled

Q: Consider CC1CN(c2ccncc2NC(=O)c2ccnn3cc(-c4ccccc4)nc23)CCO1 (racemic) . Does its IC50 lie strictly below 200 nM?
A: not fulfilled

Q: Consider COCC(=O)N1CCC[C@@H](c2nc(-c3ccc(C(=O)Nc4cc(C(F)(F)F)ccn4)cc3F)c3c(N)nccn23)C1 . Does its IC50 lie strictly below 200 nM?
A: fulfilled

Q: Consider COc1cc(Nc2c(C#N)cnc3cc(OCCCN4CCN(C)CC4)c(OC)cc23)c(Cl)cc1Cl . Does its IC50 lie strictly below 200 nM?
A: fulfilled

Q: Consider CN(C(=O)c1ccccc1)c1ccc2c(c1)[nH]/c(=N\C(=O)c1ccc(/C=C/c3ncc(N)cn3)s1)n2CCC(N)=O . Does its IC50 lie strictly below 200 nM?
A: not fulfilled

Q: Consider CN1CCN(C(=O)c2ccc3c(c2)[nH]c2c(C(N)=O)ccc(-c4ccccc4F)c23)CC1 . Does its IC50 lie strictly below 200 nM?
A: fulfilled

Q: Consider Nc1nccn2c([C@@H]3CC[C@H]4CCC(=O)N4C3)nc(-c3ccc(C(=O)Nc4cc(C(F)(F)F)ccn4)cc3)c12 . Does its IC50 lie strictly below 200 nM?
A: fulfilled
